# Assayed System: Neurogenic locus notch homolog protein 2 (Homo sapiens) (UniProt Q04721)
# Sequence (Q04721 whole entry, looked up): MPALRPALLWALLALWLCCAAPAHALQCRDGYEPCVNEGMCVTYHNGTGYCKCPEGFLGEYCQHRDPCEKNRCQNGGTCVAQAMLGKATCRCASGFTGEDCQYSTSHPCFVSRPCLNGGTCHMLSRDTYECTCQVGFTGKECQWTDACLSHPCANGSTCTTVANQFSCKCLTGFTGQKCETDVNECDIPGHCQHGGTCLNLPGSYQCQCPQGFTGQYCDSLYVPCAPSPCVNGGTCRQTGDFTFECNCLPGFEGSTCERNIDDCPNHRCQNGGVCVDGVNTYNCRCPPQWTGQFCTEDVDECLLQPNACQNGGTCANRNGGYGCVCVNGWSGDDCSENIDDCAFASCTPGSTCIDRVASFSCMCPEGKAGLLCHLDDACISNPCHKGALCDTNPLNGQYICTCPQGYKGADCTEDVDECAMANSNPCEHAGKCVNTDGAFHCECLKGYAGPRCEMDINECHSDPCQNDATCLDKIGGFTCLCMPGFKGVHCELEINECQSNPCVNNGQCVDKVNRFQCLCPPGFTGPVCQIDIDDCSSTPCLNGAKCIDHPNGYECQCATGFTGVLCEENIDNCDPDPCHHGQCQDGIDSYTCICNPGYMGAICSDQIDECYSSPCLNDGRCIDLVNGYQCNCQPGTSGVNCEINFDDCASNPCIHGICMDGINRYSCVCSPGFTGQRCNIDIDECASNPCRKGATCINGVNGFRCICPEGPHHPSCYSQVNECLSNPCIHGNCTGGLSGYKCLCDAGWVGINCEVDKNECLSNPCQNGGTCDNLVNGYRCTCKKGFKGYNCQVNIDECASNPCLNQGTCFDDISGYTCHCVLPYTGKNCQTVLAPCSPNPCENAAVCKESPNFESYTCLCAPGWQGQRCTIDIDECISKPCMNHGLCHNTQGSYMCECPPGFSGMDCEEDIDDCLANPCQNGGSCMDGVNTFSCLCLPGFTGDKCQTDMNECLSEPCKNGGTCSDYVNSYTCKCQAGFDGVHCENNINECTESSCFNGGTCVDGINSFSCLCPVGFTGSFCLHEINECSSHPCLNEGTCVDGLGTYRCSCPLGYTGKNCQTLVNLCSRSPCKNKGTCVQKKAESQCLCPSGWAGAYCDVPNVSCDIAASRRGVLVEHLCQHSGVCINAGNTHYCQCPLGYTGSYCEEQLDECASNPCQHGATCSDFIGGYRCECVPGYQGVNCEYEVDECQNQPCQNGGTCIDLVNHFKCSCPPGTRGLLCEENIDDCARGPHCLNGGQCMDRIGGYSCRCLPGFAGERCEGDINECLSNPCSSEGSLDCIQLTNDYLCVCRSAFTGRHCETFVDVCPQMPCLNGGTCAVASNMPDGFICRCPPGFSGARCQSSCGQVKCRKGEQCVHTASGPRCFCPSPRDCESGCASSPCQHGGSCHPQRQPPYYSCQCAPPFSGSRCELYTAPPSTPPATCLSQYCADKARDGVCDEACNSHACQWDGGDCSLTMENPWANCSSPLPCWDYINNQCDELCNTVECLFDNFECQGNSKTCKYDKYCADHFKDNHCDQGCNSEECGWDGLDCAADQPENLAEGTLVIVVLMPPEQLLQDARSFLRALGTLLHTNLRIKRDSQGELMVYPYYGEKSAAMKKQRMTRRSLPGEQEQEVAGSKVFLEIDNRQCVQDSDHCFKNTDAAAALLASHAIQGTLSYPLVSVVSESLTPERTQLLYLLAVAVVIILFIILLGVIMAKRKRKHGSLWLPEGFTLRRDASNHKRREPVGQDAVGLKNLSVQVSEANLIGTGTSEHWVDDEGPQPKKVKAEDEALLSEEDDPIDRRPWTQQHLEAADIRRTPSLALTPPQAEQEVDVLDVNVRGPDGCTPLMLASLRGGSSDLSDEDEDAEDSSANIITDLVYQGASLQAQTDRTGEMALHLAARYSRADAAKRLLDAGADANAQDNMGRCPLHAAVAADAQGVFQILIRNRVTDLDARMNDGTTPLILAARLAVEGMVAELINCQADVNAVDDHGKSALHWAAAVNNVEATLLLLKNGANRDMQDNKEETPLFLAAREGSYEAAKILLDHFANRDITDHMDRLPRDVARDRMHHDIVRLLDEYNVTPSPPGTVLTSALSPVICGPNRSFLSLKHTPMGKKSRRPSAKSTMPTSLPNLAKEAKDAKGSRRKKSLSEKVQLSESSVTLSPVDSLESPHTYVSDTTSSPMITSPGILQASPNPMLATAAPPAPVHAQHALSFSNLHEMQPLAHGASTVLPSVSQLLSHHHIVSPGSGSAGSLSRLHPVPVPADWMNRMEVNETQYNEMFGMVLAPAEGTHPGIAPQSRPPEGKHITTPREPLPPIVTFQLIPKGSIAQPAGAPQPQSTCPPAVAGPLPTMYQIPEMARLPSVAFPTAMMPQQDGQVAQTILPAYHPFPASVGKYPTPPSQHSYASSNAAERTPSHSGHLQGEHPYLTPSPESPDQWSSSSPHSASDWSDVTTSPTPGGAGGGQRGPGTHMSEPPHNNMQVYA
# Test Protocol: Notch2 binders on small-molecule microarrays, primary screen, biochemical, small-molecule microarray, 635 nm fluorescence, stem cell growth factors (AID 1073)
# Condition Label: Notch2 binding, higher = more signal
I'd be grateful if you could share measured composite z-score for these entries.
Respond using a number only.

Supply composite z-score measured with Neurogenic locus notch homolog protein 2 (Homo sapiens) (UniProt Q04721) for Cc1ccc(S[C@]2(C(=O)NC(C)C)CC(=O)N(Cc3ccccc3)[C@@H]2c2ccc(CO)cc2I)cc1 . -0.705

Answer briefly: composite z-score recorded on Neurogenic locus notch homolog protein 2 (Homo sapiens) (UniProt Q04721) for COc1ccc(NN2C(C(O)c3ccccc3)C=CC3C(=O)N(C4CCCCC4)C(=O)C32)cc1 (configuration not stated) 1.59

Write down the reported composite z-score (system: Neurogenic locus notch homolog protein 2 (Homo sapiens) (UniProt Q04721)) of C=CCNC(=O)[C@H]1[C@@H]2C(=O)O[C@@H](c3ccccc3)[C@@H](c3ccccc3)N2[C@@H](c2ccc(OCCO)cc2)[C@]12C(=O)Nc1ccc(C#Cc3ccc(OC)cc3)cc12 1.46

Provide the reported composite z-score (system: Neurogenic locus notch homolog protein 2 (Homo sapiens) (UniProt Q04721)) for COc1ccc([Si](C)(C)[C@H]2[C@H](CC(=O)N(CCO)Cc3ccccc3)O[C@@]3(C(=O)N(c4ccccc4)c4ccccc43)[C@@H]2C)cc1 0.199

For Neurogenic locus notch homolog protein 2 (Homo sapiens) (UniProt Q04721), give composite z-score of the listed compound: C=C(/C=C\CNS(=O)(=O)c1ccc(C)cc1)[C@H](O)[C@H]1CCCN1S(=O)(=O)c1ccccc1[N+](=O)[O-] 0.361

Provide composite z-score, system Neurogenic locus notch homolog protein 2 (Homo sapiens) (UniProt Q04721), entry [N-]=[N+]=NCc1ccccc1[C@H]1OC(c2ccc(OCCCO)cc2)=N[C@@]1(CCS(=O)(=O)c1ccccc1)C(=O)NCCN1CCOCC1 1.67

Report its composite z-score with Neurogenic locus notch homolog protein 2 (Homo sapiens) (UniProt Q04721) as the test system: COC(=O)[C@@]1(Cc2ccc(OC)cc2)[C@@H]2[C@@H](CC(=O)[C@H]2CC(=O)C(=O)N(C)C)CN1C(=O)c1ccccc1 1.78
